Exercise: for every item that follows, state its recorded inhibition in vivo at 50 mg/kg.
Test system: colon cancer cells HT-29
Experiment: Efficacy study in nude mouse with xenograft tumor, HT-29
Assay type: in vivo, human
Conditions: Mus musculus, HT-29, sc, 504 h; BALB/cA-nude mice, subcutaneous xenograft, 50 mg/kg intragastric once daily for 21 days, dosed as hydrochloride; read-out: % tumor inhibition (D21) HT-29
Write the number in % without appending the unit.

Reported inhibition in vivo at 50 mg/kg of "CCCN(CCC)CCC(=O)Nc1cc(/C=C\c2cc(OC)c(OC)c(OC)c2)ccc1OCC(F)(F)F" : 79

Reported inhibition in vivo at 50 mg/kg of "CCCN(CCC)CCC(=O)Nc1cc(/C=C\c2cc(OC)c(OC)c(OC)c2)ccc1OC" : 88

Reported inhibition in vivo at 50 mg/kg of "COc1ccc(/C=C\c2cc(OC)c(OC)c(OC)c2)cc1NC(=O)CCN(CCO)CCO" : 79

Reported inhibition in vivo at 50 mg/kg of "CCOc1ccc(/C=C\c2cc(OC)c(OC)c(OC)c2)cc1NC(=O)CCN(CC)CC" : 91
